target: Proteinase-activated receptor 1 (Homo sapiens, UniProt P25116); experiment: Inhibition of secretion of radiolabeled serotonin from washed human platelets stimulated by 1 nM thrombin; type: functional
pIC50: −log10 of the molar value.
OBSERVATION TYPE: pIC50

COc1ccc(-c2cc(N(CCCN3CCCCCC3)Cc3ccc4c(c3)OCO4)on2)cc1F: 5.67
Fc1cccc(-c2cc(N(CCCN3CCCCCC3)Cc3ccc4c(c3)OCO4)on2)c1: 5.93
Cc1ccc(-c2cc(N(CCCN3CCCCCC3)Cc3ccc4c(c3)OCO4)on2)cc1: 5.49
Fc1cc(F)cc(-c2cc(N(CCCN3CCCCCC3)Cc3ccc4c(c3)OCO4)on2)c1: 6.29
COc1ccc(-c2cc(N(CCCN3CCCCCC3)Cc3ccc4c(c3)OCO4)on2)cc1OC: 5.33
Fc1ccc(-c2cc(N(CCCN3CCCCCC3)Cc3ccc4c(c3)OCO4)on2)cc1F: 5.62

1: N#Cc1cccc(-c2cc(N(CCCN3CCCCCC3)Cc3ccc4c(c3)OCO4)on2)c1
2: COc1cc(OC)cc(-c2cc(N(CCCN3CCCCCC3)Cc3ccc4c(c3)OCO4)on2)c1
3: Clc1ccc(-c2cc(N(CCCN3CCCCCC3)Cc3ccc4c(c3)OCO4)on2)cc1
Query: Falling order of pIC50, please. Sort and list the labels as requested.
Result: 2, 1, 3
(2: 5.92, 1: 5.71, 3: 5.37)

A: COc1cccc(-c2cc(N(CCCN3CCCCCC3)Cc3ccc4c(c3)OCO4)on2)c1
B: Clc1cccc(-c2cc(N(CCCN3CCCCCC3)Cc3ccc4c(c3)OCO4)on2)c1
Query: Lab log: flag the item ( A or B ) with the smaller pIC50 figure. Give the label under which the chosen entry appears.
Result: A
(A: 5.65, B: 6.04)

* * *

molecular target: Proteinase-activated receptor 1 (Homo sapiens, UniProt P25116); experiment: Antagonistic activity against thrombin receptor, inhibition of secreted radiolabeled [3H]5-HT from washed human platelets stimulated by 3 uM thrombin receptor activating peptide (TRAP); type: functional
OBSERVATION TYPE: IC50 (nM)

Worked set:
c1ccc(-c2cc(N(CCCN3CCCCCC3)Cc3cccc4ccccc34)on2)cc1: 360
COc1cccc(CN(CCCN2CCCCC2)c2cc(-c3ccccc3)no2)c1: 1600
c1ccc(-c2cc(N(CCCN3CCCCC3)Cc3cccc4ccccc34)on2)cc1: 500
Clc1cccc(CN(CCCN2CCCCC2)c2cc(-c3ccccc3)no2)c1: 1000
Fc1ccc(-c2cc(N(CCCN3CCCCCC3)Cc3ccc4c(c3)OCO4)on2)cc1: 1310
COc1cccc(CN(CCCN2CCCCCC2)c2cc(-c3ccccc3)no2)c1: 500

a: Cc1cccc(-c2cc(N(CCCN3CCCCCC3)Cc3ccc4c(c3)OCO4)on2)c1
b: O=[N+]([O-])c1cccc(-c2cc(N(CCCN3CCCCCC3)Cc3ccc4c(c3)OCO4)[o+][n-]2)c1
Query: Could you kindly indicate whether a or b has the higher IC50 value? Let me know the label of the one you choose.
Result: b

* * *

molecular target: Proteinase-activated receptor 1 (Homo sapiens, UniProt P25116); experiment: Displacement of [3H]SFFLRR-NH2 from human thrombin receptor PAR-1
OBSERVATION TYPE: IC50 (nM)

In the examples that follow, each entry is paired with its recorded IC50.
Clc1ccc(-c2cc(N(CCCN3CCCCCC3)Cc3ccc4c(c3)OCO4)on2)cc1: 990
Clc1cccc(-c2cc(N(CCCN3CCCCCC3)Cc3ccc4c(c3)OCO4)on2)c1: 1160

P: COc1cccc(-c2cc(N(CCCN3CCCCCC3)Cc3ccc4c(c3)OCO4)on2)c1
Q: COc1ccc(-c2cc(N(CCCN3CCCCCC3)Cc3ccc4c(c3)OCO4)on2)cc1OC
R: COc1cc(OC)cc(-c2cc(N(CCCN3CCCCCC3)Cc3ccc4c(c3)OCO4)on2)c1
Query: Please put the entries in order of rising IC50. # output: labels, in the requested order
Result: P, R, Q
(P: 260 nM, R: 520 nM, Q: 1200 nM)

* * *

Target: Proteinase-activated receptor 1 (Homo sapiens)
Sequence (P25116 whole entry): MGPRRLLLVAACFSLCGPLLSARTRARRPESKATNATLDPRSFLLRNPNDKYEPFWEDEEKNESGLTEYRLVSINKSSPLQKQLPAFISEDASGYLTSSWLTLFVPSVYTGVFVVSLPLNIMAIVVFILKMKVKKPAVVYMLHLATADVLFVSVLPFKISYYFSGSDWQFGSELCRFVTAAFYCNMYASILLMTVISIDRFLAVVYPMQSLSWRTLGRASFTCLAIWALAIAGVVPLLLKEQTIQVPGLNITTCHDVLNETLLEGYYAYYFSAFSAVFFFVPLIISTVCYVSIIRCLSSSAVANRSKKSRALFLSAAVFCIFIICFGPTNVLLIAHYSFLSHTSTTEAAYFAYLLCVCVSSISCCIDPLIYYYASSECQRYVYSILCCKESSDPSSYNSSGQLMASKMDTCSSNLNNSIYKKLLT
Assay: Displacement of [3H]SFFLRR-NH2 from human thrombin receptor PAR-1
OBSERVATION TYPE: IC50 (nM)

// below: answered molecules
Ic1ccc(-c2cc(N(CCCN3CCCCCC3)Cc3ccc4c(c3)OCO4)on2)cc1: 470
O=[N+]([O-])c1cccc(-c2cc(N(CCCN3CCCCCC3)Cc3ccc4c(c3)OCO4)[o+][n-]2)c1: 1020
N#Cc1cccc(-c2cc(N(CCCN3CCCCCC3)Cc3ccc4c(c3)OCO4)on2)c1: 600
Fc1cccc(-c2cc(N(CCCN3CCCCCC3)Cc3ccc4c(c3)OCO4)on2)c1: 770
Cc1ccc(-c2cc(N(CCCN3CCCCCC3)Cc3ccc4c(c3)OCO4)on2)cc1: 290
Fc1ccc(-c2cc(N(CCCN3CCCCCC3)Cc3ccc4c(c3)OCO4)on2)cc1F: 2140

a: COc1ccccc1-c1cc(N(CCCN2CCCCCC2)Cc2ccc3c(c2)OCO3)on1
b: COc1ccc(-c2cc(N(CCCN3CCCCCC3)Cc3ccc4c(c3)OCO4)on2)cc1
Query: Which gives the smaller IC50 number: a or b ? Please respond with the label that marks your chosen entry.
Result: b

I: Cc1cccc(-c2cc(N(CCCN3CCCCCC3)Cc3ccc4c(c3)OCO4)on2)c1
II: Fc1cc(F)cc(-c2cc(N(CCCN3CCCCCC3)Cc3ccc4c(c3)OCO4)on2)c1
Query: Given I and given II , which shows the smaller recorded IC50? Return value: the label identifying the chosen record.
Result: II

* * *

biological target: Prothrombin (Homo sapiens)
OBSERVATION TYPE: Ki

Query: Please look at "Fc1cc(F)cc(-c2cc(N(CCCN3CCCCCC3)Cc3ccc4c(c3)OCO4)on2)c1" and tell me its recorded Ki on Prothrombin (Homo sapiens).
Result: > 10 µM

* * *

Biological target: Proteinase-activated receptor 1 (Homo sapiens, UniProt P25116)
Sequence (P25116 whole entry): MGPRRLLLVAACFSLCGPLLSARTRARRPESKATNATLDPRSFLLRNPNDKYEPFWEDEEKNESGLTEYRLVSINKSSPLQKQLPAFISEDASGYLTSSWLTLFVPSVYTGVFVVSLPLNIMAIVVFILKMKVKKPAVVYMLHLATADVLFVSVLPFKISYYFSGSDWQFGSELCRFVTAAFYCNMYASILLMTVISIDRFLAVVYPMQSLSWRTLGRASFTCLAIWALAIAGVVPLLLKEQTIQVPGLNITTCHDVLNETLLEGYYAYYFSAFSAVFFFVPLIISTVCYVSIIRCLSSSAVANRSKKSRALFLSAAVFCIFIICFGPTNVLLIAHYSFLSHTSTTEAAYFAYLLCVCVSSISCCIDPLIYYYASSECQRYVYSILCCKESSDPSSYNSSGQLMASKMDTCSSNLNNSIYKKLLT
Test: Inhibition of secretion of radiolabeled serotonin from washed human platelets stimulated by 1 nM thrombin
Assay type: functional
pIC50: −log10 of the molar value.
OBSERVATION TYPE: pIC50

O=[N+]([O-])c1cccc(-c2cc(N(CCCN3CCCCCC3)Cc3ccc4c(c3)OCO4)[o+][n-]2)c1: < 5.00
Ic1ccc(-c2cc(N(CCCN3CCCCCC3)Cc3ccc4c(c3)OCO4)on2)cc1: 6.06
CSc1ccc(-c2cc(N(CCCN3CCCCCC3)Cc3ccc4c(c3)OCO4)on2)cc1: < 5.40

Query: State the measured pIC50 (Proteinase-activated receptor 1 (Homo sapiens, UniProt P25116)) of "Fc1ccc(-c2cc(N(CCCN3CCCCCC3)Cc3ccc4c(c3)OCO4)on2)cc1"
Result: < 5.00

* * *

molecular target: Proteinase-activated receptor 1 (Homo sapiens); experiment: Antagonistic activity against thrombin receptor, inhibition of secreted radiolabeled [3H]5-HT from washed human platelets stimulated by 3 uM thrombin receptor activating peptide (TRAP); type: functional
OBSERVATION TYPE: IC50 (µM)

c1ccc(CN(CCCN2CCCCC2)c2cc(-c3ccccc3)no2)cc1: 9

I: Cc1ccccc1-c1cc(N(CCCN2CCCCCC2)Cc2ccc3c(c2)OCO3)on1
II: Clc1cccc(-c2cc(N(CCCN3CCCCCC3)Cc3ccc4c(c3)OCO4)on2)c1
III: COc1ccc(-c2cc(N(CCCN3CCCCCC3)Cc3ccc4c(c3)OCO4)on2)cc1OC
IV: COc1ccccc1-c1cc(N(CCCN2CCCCCC2)Cc2ccc3c(c2)OCO3)on1
Query: Endpoint returns the given compounds ordered by ascending IC50. Please list the labels according to the requested order.
Result: II, III, IV, I

a: CS(=O)(=O)c1ccc(-c2cc(N(CCCN3CCCCCC3)Cc3ccc4c(c3)OCO4)on2)cc1
b: Ic1ccc(-c2cc(N(CCCN3CCCCCC3)Cc3ccc4c(c3)OCO4)on2)cc1
c: N#Cc1cccc(-c2cc(N(CCCN3CCCCCC3)Cc3ccc4c(c3)OCO4)on2)c1
d: Fc1cccc(-c2cc(N(CCCN3CCCCCC3)Cc3ccc4c(c3)OCO4)on2)c1
e: c1ccc(-c2cc(N(CCN3CCCCCC3)Cc3cccc4ccccc34)on2)cc1
Query: Ordering criterion: IC50; begin with the maximum. Field: ranking. Enter the labels in the order requested.
Result: e, a, c, d, b

The origin of these recorded values is ChEMBL document CHEMBL1136056.
